# Tested on: K4 kissing-loop RNA reporter;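 note: bound reporter read as fluorescence of individual clusters on recovered sequencing chips by microscopy, with normalized cluster intensities fitted with a binding model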
# experiment: apparent KD of K4 kissing-loop reporter; higher = weaker reporter binding
# cond: Eterna round: R107; input ligand: none
Measured apparent KD of K4 kissing-loop reporter of individual entries
recorded metric: apparent KD of K4 kissing-loop reporter (nM)

primary_sequence=GCCGUAGAUUGAAGGAGCGGUAUGGGCGUUGGCUGAGUGAUGUUCAGGGAAAGUGGCUUCUACCAGGUAGGUCGCAAUCUACGGC experimental_system="K4 kissing-loop RNA reporter" display_unit=nM test_value=157
primary_sequence="AUAAUAUGAGUGAUGUUCAUGAAACCUGAAGGAGCGGACGAAAGUCCAGGUAGGUCGCAGGACUCCUUCAACAUGGGAGAGGGAG [KL-SSArg-A8 #analogue]" experimental_system="K4 kissing-loop RNA reporter" display_unit=nM test_value=166
primary_sequence="UAUUAAUUGUCAGGAUAUCGAAAUCGAGUGAUGUUCGUAAAUUAAUUAUUAUUAAUAAUAUUUAAACGAGAAGGGACAUUAUUUA [JR_SSFMNB_Sub001]" experimental_system="K4 kissing-loop RNA reporter" display_unit=nM test_value=694

The measurements presented in this section are drawn from the supplement of paper PMC9170038.
